Data credit: patent US20230416363A1

# target_entity: T1, human PD-1 expressed on cells (human, UniProt Q15116 25-288)
# T1 construct: whole, on cells
# assay_summary: flow cytometry, SEB-activated PBMC donor one
pEC50: −log10 of the molar value.
property_name: pEC50

>  <binder>
23A11 (antibody, human IgG1, V domains shown) VH: QVQLVQSGAEVKKPGSSVKVSCKASGYTFTDYSLHWVRQAPGQGLEWMGEVIPMFDTAYYAQTFQGRVTITADESTSTAYMELSSLRSEDTAVYYCAREPFTMVRGGRYYYYGMDVWGQGTTVTVSS VL: DIQMTQSPSSLSASVGDRVTITCRASQNINKNLNWYQQKPGKAPKLLIYDASNLQSGVPSRFSGSGSGTDFTLTISSLQPEDFATYYCQHSETFGQGTKVEIK

>  <property_name>
pEC50

>  <result_number>
7.72

$$$$
>  <binder>
23A8 (antibody, human IgG1, V domains shown) VH: EVQLLESGGGLVQPGGSLRLSCAASGFTFSSSAMHWVRQAPGKGLEWVSGISGSGSSTYYADSVKGRFTISRDNSKNTLYLQMNSLRAEDTAVYYCARDNNYYYYMDVWGKGTTVTVSS VL: DIQMTQSPSSLSASVGDRVTITCRASQSIGTWLAWYQQKPGKAPKLLIYAASTLRSGVPSRFSGSGSGTDFTLTISSLQPEDFATYYCQQSYSTPYTFGQGTKLEIK

>  <property_name>
pEC50

>  <result_number>
8.82

$$$$
>  <binder>
19B10 (antibody, human IgG1, V domains shown) VH: EVQLLESGGGLVQPGGSLRLSCAASGFTFSSYAMHWVRQAPGKGLEWVSGISNSGGNTYYADSVKGRFTISRDNSKNTLYLQMNSLRAEDTAVYYCARDNYYYYMDVWGKGTTVTVSS VL: DIQMTQSPSSLSASVGDRVTITCRASQSVSTWLAWYQQKPGKAPKLLIYAASNLETGVPSRFSGSGSGTDFTLTISSLQPEDFATYYCQQTYSTPYTFGQGTKLEIK

>  <property_name>
pEC50

>  <result_number>
6.93

$$$$
